target: FAK (Homo sapiens); test: FAK degradation by immunoblot in PA-TU-8988T cells; type: cell-based; set-up: endogenous in cells; host or cells: PA-TU-8988T; conditions: PaTu 8988t; total FAK protein, PA-TU-8988T cells, 10 nM, 4 hours, vs DMSO; read-out: Degradation at 10 nM
# inhibition at 0.01 µM per record follows

Guide cases for inhibition at 0.01 µM, answers given:
# Molecule, inhibition at 0.01 µM
measured = [
    ("CNC(=O)c1ccccc1Nc1cc(Nc2ccc(N3CCN(CCOCCOCCOCCNC(=O)COc4cccc5c4C(=O)N(C4CCC(=O)NC4=O)C5=O)CC3)cc2OC)ncc1C(F)(F)F (centres unmarked)", "50 to 69%"),
    ("CS(=O)(=O)c1cccc(CNc2nc(Nc3ccc(C(=O)NCCCCCCCCNC(=O)COc4cccc5c4C(=O)N(C4CCC(=O)NC4=O)C5=O)cc3)ncc2C(F)(F)F)c1 (centres unmarked)", "25 to 49%"),
    ("CNC(=O)c1ccccc1Nc1cc(Nc2ccc(N3CCN(CCCCCCCCNc4cccc5c4C(=O)N(C4CCC(=O)NC4=O)C5=O)CC3)cc2OC)ncc1C(F)(F)F (centres unmarked)", "85 to 100%"),
    ("CNC(=O)c1ccccc1Nc1cc(Nc2cc(C)c(C3CCN(CCCCCCNC(=O)COc4cccc5c4C(=O)N(C4CCC(=O)NC4=O)C5=O)CC3)cc2OC(C)C)ncc1C(F)(F)F (centres unmarked)", "85 to 100%"),
    ("CNC(=O)c1ccccc1Nc1cc(Nc2ccc(N3CCN(CCCCCCNC(=O)COc4cccc5c4C(=O)N(C4CCC(=O)N(C)C4=O)C5=O)CC3)cc2OC)ncc1C(F)(F)F (centres unmarked)", "0 to 24%"),
]

Log: FAK (Homo sapiens), molecule CNC(=O)c1ccccc1Nc1cc(Nc2ccc(N3CCN(CCCCCCNC(=O)COc4cccc5c4C(=O)N(C4CCC(=O)NC4=O)C5=O)CC3)cc2OC)ncc1C(F)(F)F (centres unmarked) , inhibition at 0.01 µM = 85 to 100%

Log: FAK (Homo sapiens), molecule CNC(=O)c1ccccc1Nc1cc(Nc2ccc(N3CCN(CCOCCOCCNC(=O)CNc4cccc5c4C(=O)N(C4CCC(=O)NC4=O)C5=O)CC3)cc2OC)ncc1C(F)(F)F (centres unmarked) , inhibition at 0.01 µM = 70 to 84%

Log: FAK (Homo sapiens), molecule CNC(=O)c1ccccc1Nc1cc(Nc2cc(C)c(C3CCNCC3)cc2OC(C)C)ncc1C(F)(F)F , inhibition at 0.01 µM = 0 to 24%

====

target: FAK (Homo sapiens, UniProt Q05397); experiment: FAK degradation by immunoblot in PA-TU-8988T cells; assay type: cell-based; design: endogenous in cells; host or cells: PA-TU-8988T; settings: PA-TU-8988T cells, 4 hours, immunoblot
Sequence (Q05397 whole entry): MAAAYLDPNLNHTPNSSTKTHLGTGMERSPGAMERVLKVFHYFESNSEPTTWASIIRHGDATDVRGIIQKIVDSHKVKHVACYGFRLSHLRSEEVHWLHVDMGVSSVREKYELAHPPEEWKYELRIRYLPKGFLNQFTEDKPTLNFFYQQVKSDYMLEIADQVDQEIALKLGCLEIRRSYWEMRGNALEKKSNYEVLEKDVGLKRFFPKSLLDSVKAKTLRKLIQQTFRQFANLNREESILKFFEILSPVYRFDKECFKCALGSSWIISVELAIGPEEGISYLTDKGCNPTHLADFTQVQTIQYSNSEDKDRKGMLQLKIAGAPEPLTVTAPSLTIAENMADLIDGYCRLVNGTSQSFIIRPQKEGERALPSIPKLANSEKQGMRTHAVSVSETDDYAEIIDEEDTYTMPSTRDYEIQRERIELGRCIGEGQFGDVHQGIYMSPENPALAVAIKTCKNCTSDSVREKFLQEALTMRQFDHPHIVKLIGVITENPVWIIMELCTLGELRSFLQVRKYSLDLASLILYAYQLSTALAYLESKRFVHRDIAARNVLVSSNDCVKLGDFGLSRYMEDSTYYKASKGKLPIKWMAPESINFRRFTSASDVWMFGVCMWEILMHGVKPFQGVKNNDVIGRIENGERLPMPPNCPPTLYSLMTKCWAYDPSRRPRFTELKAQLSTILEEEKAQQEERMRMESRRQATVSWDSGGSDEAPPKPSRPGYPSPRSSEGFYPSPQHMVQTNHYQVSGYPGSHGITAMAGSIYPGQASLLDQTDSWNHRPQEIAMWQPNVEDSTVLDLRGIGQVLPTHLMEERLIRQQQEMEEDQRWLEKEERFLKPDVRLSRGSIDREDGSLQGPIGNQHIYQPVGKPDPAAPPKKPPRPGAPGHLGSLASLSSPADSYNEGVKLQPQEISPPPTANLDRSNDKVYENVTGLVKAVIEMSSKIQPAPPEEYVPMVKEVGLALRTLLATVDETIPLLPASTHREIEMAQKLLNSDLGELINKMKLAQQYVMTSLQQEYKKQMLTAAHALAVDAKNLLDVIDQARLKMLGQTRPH
Assay metric: Concentration of maximal degradation of FAK protein (nM)

# Molecule, Reported measurement
measured = [
    ("CS(=O)(=O)c1cccc(CNc2nc(Nc3ccc(C(=O)NCCCCCCCCNC(=O)COc4cccc5c4C(=O)N(C4CCC(=O)NC4=O)C5=O)cc3)ncc2C(F)(F)F)c1 (stereo not drawn) [Compound 7]", 100),
]

[1] CNC(=O)c1ccccc1Nc1cc(Nc2ccc(N3CCN(CCOCCOCCNC(=O)CNc4cccc5c4C(=O)N(C4CCC(=O)NC4=O)C5=O)CC3)cc2OC)ncc1C(F)(F)F (stereo not drawn) [Compound 4]
[2] CNC(=O)c1ccccc1Nc1cc(Nc2ccc(N3CCN(CCCCCCCCNC(=O)CNc4cccc5c4C(=O)N(C4CCC(=O)NC4=O)C5=O)CC3)cc2OC)ncc1C(F)(F)F (stereo not drawn) [Compound 5]
API: POST /compare with 1 and 2 ; response names the item with higher Concentration of maximal degradation of FAK protein. Could you answer with the label of the item you picked?
1
